Each recorded value in this set is attributed to patent US5075318A.

Test: Cataleptogenic activity in rats
Format: in vivo, rat (Sprague-Dawley)
Conditions: rat, in vivo, po, read-out: ratio of catalepsy threshold dose to dose required to antagonize apomorphine induced gnawing
experimentalEndpoint: selectivity ratio

## Task Any idea what selectivity ratio was measured for CCC(C)(CC)C(=O)N[C@H]1C[C@@H]2c3cccc4[nH]c(C)c(c34)C[C@H]2N(C)C1 ?
## Result ≥ 25

###

Target: D-2 receptor sites (Bos taurus, UniProt P20288)
Construct: Calf striatal membranes are prepared as described above
Sequence (P20288 whole entry): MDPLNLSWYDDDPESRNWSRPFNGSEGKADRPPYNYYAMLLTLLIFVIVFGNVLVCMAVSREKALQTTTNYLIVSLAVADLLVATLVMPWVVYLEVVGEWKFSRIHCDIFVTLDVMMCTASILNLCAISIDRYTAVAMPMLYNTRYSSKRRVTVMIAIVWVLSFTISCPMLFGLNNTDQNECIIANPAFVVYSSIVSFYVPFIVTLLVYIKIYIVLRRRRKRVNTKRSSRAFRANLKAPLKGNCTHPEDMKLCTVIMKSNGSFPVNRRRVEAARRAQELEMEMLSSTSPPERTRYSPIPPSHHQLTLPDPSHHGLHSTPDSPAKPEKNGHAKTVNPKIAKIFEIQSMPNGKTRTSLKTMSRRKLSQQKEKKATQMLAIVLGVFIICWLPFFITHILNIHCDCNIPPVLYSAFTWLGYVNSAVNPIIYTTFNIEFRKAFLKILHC
Assay: D-2 receptor binding, 3H-spiperone binding assay in calf striatal membranes
experimentalEndpoint: IC50

## Task What does the record list as IC50 for CCC(C)(CC)C(=O)N[C@H]1C[C@@H]2c3cccc4[nH]c(C)c(c34)C[C@H]2N(C)C1 [compound of formula I] ?
## Result ~20 nM

###

Experiment: Non-toxic dose level in the dog after 4 week treatment
Conditions: in vivo, po, after a 4 week treatment
experimentalEndpoint: NOAEL at 672 h (mg/kg/day)
Give bare numbers, in mg/kg/day.

## Task I would be grateful if you could share the reported NOAEL at 672 h for CCC(C)(CC)C(=O)N[C@H]1C[C@@H]2c3cccc4[nH]c(C)c(c34)C[C@H]2N(C)C1 .
## Result 3
